- Test system: L1210 leukemia ip in BDF1 mice, survival T/C
- protocol: NCI In Vivo Anticancer Drug Screen. Data for tumor model L1210 Leukemia (intraperitoneal) in B6D2F1 (BDF1) mice
- experimental parameters: endpoint: mean survival time; dose: 200.0 mg/kg/injection; schedule: Q01DX001 (ip); vehicle: carboxymethylcellulose (CMC); higher = longer survival
- Description: The antitumor activity of compounds was measured in mice bearing transplantable tumors. Survival or tumor size were measured and the results are expressed as the measurement made in the treated group (T) divided by the measurement made in the vehicle treated control group (C). The tumor model used in this assay is L1210 Leukemia (intraperitoneal) in B6D2F1 (BDF1) mice
Inconclusive results and toxic doses are left out.
measured metric: T/C

[
  {
    "mol": "N#Cc1c2ccccc2nc2ccccc12",
    "measured metric": "T/C",
    "recorded value": "90 % of control"
  },
  {
    "mol": "COc1ccc(C(=O)OCCN(CCOC(=O)c2ccc(OC)cc2)c2c[nH]c(=O)[nH]c2=O)cc1",
    "measured metric": "T/C",
    "recorded value": "95 % of control"
  },
  {
    "mol": "CCOC(=O)CC(C(=O)O)=C(c1ccccc1)c1ccccc1",
    "measured metric": "T/C",
    "recorded value": "93 % of control"
  },
  {
    "mol": "CC(=O)Nc1ccc(Cc2ccccc2)cc1[N+](=O)[O-]",
    "measured metric": "T/C",
    "recorded value": "98 % of control"
  },
  {
    "mol": "Cc1cccc([N+](=O)[O-])c1N",
    "measured metric": "T/C",
    "recorded value": "113 % of control"
  },
  {
    "mol": "CC(C)COC(=O)c1ccc(NC(=O)Nc2ccc(F)cc2)cc1",
    "measured metric": "T/C",
    "recorded value": "87 % of control"
  }
]

====

- System: L1210 leukemia ip in BDF1 mice, survival T/C
- protocol: NCI In Vivo Anticancer Drug Screen. Data for tumor model L1210 Leukemia (intraperitoneal) in B6D2F1 (BDF1) mice
- experimental parameters: endpoint: mean survival time; dose: 100.0 mg/kg/injection; schedule: Q04DX003 (ip); vehicle: saline with Tween-80; higher = longer survival
Inconclusive results and toxic doses are left out.
Measured T/C by item

[
  {
    "mol": "O=C(NC(=S)Nc1cc(C(F)(F)F)ccc1Cl)c1cccc([N+](=O)[O-])c1",
    "T/C": "99 % of control"
  },
  {
    "mol": "CCOC(=O)Nc1cc(Cl)c(N)c(NC(=O)OCC)n1",
    "T/C": "98 % of control"
  },
  {
    "mol": "C[N+](C)(C)/N=C1\\CCc2ccccc21",
    "T/C": "98 % of control"
  },
  {
    "mol": "O=S(=O)(/C=N\\N=P(c1ccccc1)(c1ccccc1)c1ccccc1)c1ccccc1-c1ccccc1",
    "T/C": "109 % of control"
  },
  {
    "mol": "NC(=O)c1cnc(N)nc1C(N)=O",
    "T/C": "96 % of control"
  },
  {
    "mol": "O=C(O)c1ccnc(Cl)c1",
    "T/C": "101 % of control"
  }
]

====

Quick reference for T/C among some compounds
- Tested on: L1210 leukemia ip in BDF1 mice, survival T/C
- protocol: NCI In Vivo Anticancer Drug Screen. Data for tumor model L1210 Leukemia (intraperitoneal) in B6D2F1 (BDF1) mice
- experimental parameters: endpoint: mean survival time; dose: 400.0 mg/kg/injection; schedule: Q01DX001 (ip); vehicle: saline with Tween-80; higher = longer survival
Toxic doses and inconclusive results are not listed.

[
  {
    "compound": "Cc1ccc(S(=O)(=O)OC2CCC(=O)C3CC4(CCC23)OCCO4)cc1 (configuration not stated)",
    "assayed system": "L1210 leukemia ip in BDF1 mice, survival T/C",
    "T/C": "95 % of control"
  },
  {
    "compound": "NC(=O)C(N)Cc1ccc(OCc2ccccc2)c(OCc2ccccc2)c1 (configuration not stated)",
    "assayed system": "L1210 leukemia ip in BDF1 mice, survival T/C",
    "T/C": "86 % of control"
  },
  {
    "compound": "CC(=O)OC1CCC2(C)C(=CCC3C4C/C(=C\\N5CCCC5)C(=O)C4(C)CCC32)C1 (configuration not stated)",
    "assayed system": "L1210 leukemia ip in BDF1 mice, survival T/C",
    "T/C": "90 % of control"
  },
  {
    "compound": "CC1(C)N([O-])[N+](=O)C1(C)C",
    "assayed system": "L1210 leukemia ip in BDF1 mice, survival T/C",
    "T/C": "101 % of control"
  },
  {
    "compound": "CC(CNC(=O)OCc1ccccc1)C(=O)O (configuration not stated)",
    "assayed system": "L1210 leukemia ip in BDF1 mice, survival T/C",
    "T/C": "96 % of control"
  },
  {
    "compound": "CCCCCCCC(C(=O)O)C(C)C (configuration not stated)",
    "assayed system": "L1210 leukemia ip in BDF1 mice, survival T/C",
    "T/C": "105 % of control"
  },
  {
    "compound": "CCCCC1C2CCCCC2CC2CCCCC21 (configuration not stated)",
    "assayed system": "L1210 leukemia ip in BDF1 mice, survival T/C",
    "T/C": "98 % of control"
  }
]
